Cited source: patent US20220162261A1

# tested_target: T1, α4β1 (R&D Systems #5668-A4) (UniProt P13612 34-970; P05556 21-728, limits assumed)
# T1 construct: bought; also called soluble α4β1
# test_method_notes: competition ELISA vs VCAM-1
Bridge positions count the residues as written; N and C are the ends. Square brackets hold non-standard residues; d marks the D form. Phe(4-tBu) = CC(C)(C)c1ccc(C[C@H](N)C(=O)O)cc1; NMeR = CN[C@@H](CCCNC(=N)N)C(=O)O; β3hE = N[C@@H](CCC(=O)O)CC(=O)O; NMeK = CN[C@@H](CCCCN)C(=O)O; Pen = CC(C)(S)[C@H](N)C(=O)O; dNMeK = CN[C@H](CCCCN)C(=O)O
Recorded measurements of IC50, one per entry
measured_parameter: IC50 (nM)

Ac-C[NMeR]SDTL[Pen][dK]-NH2 (disulfide 1-7; SMILES CC(=O)N[C@H]1CSSC(C)(C)[C@@H](C(=O)N[C@H](CCCCN)C(N)=O)NC(=O)[C@H](CC(C)C)NC(=O)[C@H]([C@@H](C)O)NC(=O)[C@H](CC(=O)O)NC(=O)[C@H](CO)NC(=O)[C@H](CCCNC(=N)N)N(C)C1=O) [SEQ ID NO: 202] | 1620
Ac-[Pen][NMeR]SDTL[Pen]WE[NMeK]-NH2 (disulfide 1-7; not fully specified; printed as [Ac-Pen-(N-Me-Arg)-Ser-Asp-Thr-Leu-Pen-Trp-Glu-(N-Me-Lys)-NH2]2-DIG; also: homodimer: two identical subunits joined by DIG linker at the Lys10 side chains, each subunit has its own Pen1-Pen7 disulfide, also called peptide 215) [SEQ ID NO: 215] | 270
Ac-[Pen][NMeR]SDTL[Pen][Phe(4-tBu)][β3hE][dK]-NH2 (disulfide 1-7; not fully specified (residue 10); printed as (Ac Pen N-Me-R S D T L Pen F(4-tBu) b-H-E k NH2)2 DIG, disulfide Pen-Pen; also: dimer, two subunits joined by DIG linker, also called peptide 218) [SEQ ID NO: 218] | 490
Ac-[Pen][NMeR]SDTL[Pen]WE[dNMeK]-NH2 (disulfide 1-7; not fully specified (residue 10); printed as (Ac Pen N-Me-R S D T L Pen W E N-Me-k NH2)2 DIG, disulfide Pen-Pen; also: dimer, two subunits joined by DIG linker, also called peptide 214) [SEQ ID NO: 214] | 436
Ac-C[NMeR]SDTL[Pen][dK]-NH2 (disulfide 1-7; also: homodimer via IDA linker on D-Lys8 side chains, also called peptide 203) [SEQ ID NO: 203] | 700
